- System: PPAR-γ-positive cells
- experiment: Immunohistological staining of rat dorsal skin after injection of fatty acids (PPAR-γ)
- Format: in vivo, Wistar rat
- experimental conditions: four weeks after administration; 1 mg fatty acid in 20 μL per location; vs physiological saline; FIGS. 10B-10G
test readout: number of PPAR-γ-positive cells at the administration site

molecule="CCCCCCCCCCCCCCCCCC(=O)O [stearic acid]" target="PPAR-γ-positive cells" observed_result=increased
molecule="CCCCCCCCCCCCCC(=O)O [myristic acid]" target="PPAR-γ-positive cells" observed_result=increased
molecule="CCCCCCCCCCCCCCCC(=O)O [palmitic acid]" target="PPAR-γ-positive cells" observed_result=increased
